- Tested on: SN12C renal
- Measurement description: NCI-60 one-dose screen, 48 h (100 = growth as untreated, 0 = no growth, -100 = all killed)
- Applied conditions: 10 µM unless noted
This is part of a sample that, as a whole, favours compounds with a hit. Of some 83,000 tested, about 20% had one in any assay.
Quantity: growth (%)

• O=C(CCN1C(=O)/C(=C/c2ccc(O)cc2)SC1=S)Nc1ccc(Cl)cc1 = 91.7
• O=C(Nc1ccc(I)cc1F)c1cc(I)ccc1O = -10.4
• S=C(c1cccs1)N1CCN(c2cccc(Cl)c2)CC1 = 101
• O=C(O)C(c1ccccc1)N1C(=O)CSC1=S (stereo not given) = 97
• O=c1c2cc(F)ccc2sc2c(N3CCNCC3)nc3ccc(F)cc3c12 = 54.2
• c1ccc(Nc2cc(-c3cccnc3)[nH]n2)cc1 = 99.3
• COC(=O)c1ccc2[nH]c(O)c(C(=Nc3ccc(N(C)C(=O)CN4CCN(C)CC4)cc3)c3ccccc3)c2c1 = 17.6
• COc1cc(/C=C/C(=O)/C=C/c2cc(OC)c3c(c2OC)OCO3)c(OC)c2c1OCO2 = 30.4
• CC1=C(C)C(=O)C(Nc2cccc(C(=O)OC(C)(C)C)c2)=C(Br)C1=O = 85.7
• COc1ccc(N2C(=O)C(Oc3ccccc3)C2c2ccc(C)cc2)cc1 (stereo not given) = 104
• Cc1nn(-c2ccccc2)c2c1N=c1s/c(=C\c3ccc(C(F)(F)F)cc3)c(=O)n1CN2 = 71.4
• CCOC(=O)Cn1c(C)c(/C=N/NC(=O)c2cc3c(ccc4ccccc43)o2)c2ccccc21 = 34.4
• CCOC(=O)c1[nH]c(C)c(C(=O)OCc2ccccc2C#N)c1C = 95
• CCOc1cccc(NC2=C(Br)C(=O)C(C)=C(C)C2=O)c1 = 85
• N#CC1=C(N)Oc2c(sc3c(Br)cccc23)C1c1ccc(Br)cc1 (stereo not given) = 25.8
• O=c1c2cc(F)ccc2sc2c(NCCCNCCO)nc3ccccc3c12 = 46.9
• CC([C@H]1CCC2C3CCC4C(=O)C(NC=O)=CC[C@]4(C)C3CC[C@@]21C)N(C)C (stereo not given in full) = 42
• Cc1cc2nc3ccc(N=Nc4ccc(N(C)C)cc4)cc3n(-c3ccccc3)c-2cc1=N = -52.8
• c1ccc(-c2nc3sc(-c4ccccc4)cn3n2)cc1 = 79.5
• c1cc(-c2nnc(SSc3ncnc4nc[nH]c34)o2)ccn1 = 55.8
• COc1nc2ccccc2cc1-c1nc2c(cnn2-c2ccc(Br)cc2)c(=O)[nH]1 = 33.2
• Cc1nc(S(=O)(=O)c2ccccc2)c(S(=O)(=O)Cc2ccc([N+](=O)[O-])cc2)o1 = 89.9
• COc1cc(CCC[P+](c2ccccc2)(c2ccccc2)c2ccccc2)c(OC)c(OC)c1OC = 77.5
• CC(=O)O.CN1[CH-]N(Cc2ccc(C#N)cc2)c2ccccc21.[Ag+] = 111
• Cc1cc(N2CCCC2)nc(N(CCCNc2ccnc3cc(Cl)ccc23)Cc2ccccn2)n1 = 52
